For each entry below, report its pIC50 value.
# experimental_system: human kinase Mps-1 (Homo sapiens, UniProt P33981)
# Construct: N-terminally GST-tagged human full length recombinant Mps-1 kinase; GST (N)
# Sequence (P33981 whole entry): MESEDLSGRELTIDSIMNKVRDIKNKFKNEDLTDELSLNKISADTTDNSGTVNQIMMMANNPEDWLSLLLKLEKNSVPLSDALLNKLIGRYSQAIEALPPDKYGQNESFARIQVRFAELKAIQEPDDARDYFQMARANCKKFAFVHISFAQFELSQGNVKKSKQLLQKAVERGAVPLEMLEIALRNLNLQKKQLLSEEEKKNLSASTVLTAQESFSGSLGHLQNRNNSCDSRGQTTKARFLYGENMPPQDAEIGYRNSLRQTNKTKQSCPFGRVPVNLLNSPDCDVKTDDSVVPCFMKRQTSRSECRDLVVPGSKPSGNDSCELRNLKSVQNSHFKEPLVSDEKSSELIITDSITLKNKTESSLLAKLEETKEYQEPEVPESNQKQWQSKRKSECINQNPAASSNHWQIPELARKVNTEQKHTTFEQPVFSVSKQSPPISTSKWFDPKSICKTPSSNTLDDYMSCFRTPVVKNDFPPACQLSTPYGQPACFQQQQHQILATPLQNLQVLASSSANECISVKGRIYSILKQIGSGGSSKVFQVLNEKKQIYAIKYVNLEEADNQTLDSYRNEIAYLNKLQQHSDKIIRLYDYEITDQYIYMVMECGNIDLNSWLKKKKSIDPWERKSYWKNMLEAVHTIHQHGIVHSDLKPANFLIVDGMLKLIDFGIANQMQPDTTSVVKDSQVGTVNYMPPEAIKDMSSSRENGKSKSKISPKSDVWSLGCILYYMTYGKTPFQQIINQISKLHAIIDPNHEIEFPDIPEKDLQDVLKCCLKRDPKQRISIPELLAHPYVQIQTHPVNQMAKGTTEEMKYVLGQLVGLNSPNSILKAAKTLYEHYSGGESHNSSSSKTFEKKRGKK
# protocol_text: Mps-1 kinase assay (TR-FRET)
# run_parameters: GST-tagged human full length recombinant Mps-1; 10 μM ATP; 1 μM peptide substrate; 60 min at 22° C.
// pIC50: -log10(molar conc.)

According to the records, this molecule CC(C)CNc1nc(C2=CCOCC2)cn2c(-c3ccc(C(=O)NC4CC4)c(F)c3)cnc12 [Example 1-52] displays pIC50 of 8.09

According to the records, this molecule O=C(NC1CC1)c1ccc(-c2cnc3c(NCc4ccc(F)cc4)nc(-c4ccncc4)cn23)cc1 [Example 3-10] displays pIC50 of 8.72

According to the records, this molecule O=C(NC1CC1)c1ccc(-c2cnc3c(NCCC(F)(F)F)nc(-c4ccoc4)cn23)cc1F [Example 1-54] displays pIC50 of 8.18

According to the records, this molecule Cc1cc(-c2cnc3c(NC[C@H](O)C(F)(F)F)nc(-c4ccnn4C)cn23)ccc1C(=O)NC1CC1 [Example 3-38] displays pIC50 of 8.14

According to the records, this molecule Cn1nccc1CNc1nc(-c2ccncc2)cn2c(-c3ccc(C(=O)NC4CC4)c(Cl)c3)cnc12 [Example 1-46] displays pIC50 of 7.49

According to the records, this molecule CC(C)CNc1nc(C2=CCSCC2)cn2c(-c3ccc(C(=O)NC4CC4)cc3)cnc12 [Example 1-28] displays pIC50 of 8.70

According to the records, this molecule CCOC(C)CNc1nc(-c2ccncc2)cn2c(-c3ccc(C(=O)NC4CC4)cc3)cnc12 (stereo not shown) [Example 3-30] displays pIC50 of 8.15

According to the records, this molecule CC(C)CNc1nc(C(=O)Nc2ccccc2)cn2c(-c3ccc(C(=O)NC4CC4)cc3)cnc12 [Example 8-1] displays pIC50 of 7.17

According to the records, this molecule Cc1cc(-c2cnc3c(NCCC(F)(F)F)nc(C4=CC[S+]([O-])CC4)cn23)ccc1C(=O)NC1CC1 (stereo not shown) [Example 9-1] displays pIC50 of 7.80

According to the records, this molecule Cc1cc(-c2cnc3c(NCCC(F)(F)F)nc(CN4CCCCC4)cn23)ccc1C(=O)NC1CC1 [Example 11-1] displays pIC50 of 6.85

According to the records, this molecule CC(C)CNc1nc(C(N)=O)cn2c(-c3ccc(C(=O)NC4CC4)cc3)cnc12 [Example 14-1] displays pIC50 of 8.00

According to the records, this molecule O=C(NC1CC1)c1ccc(-c2cnc3c(NCc4ccccn4)nc(-c4ccncc4)cn23)cc1 [Example 3-17] displays pIC50 of 8.34

According to the records, this molecule Cc1cc(-c2cnc3c(NCCC(F)(F)F)nc(-c4cccnc4)cn23)ccc1C(=O)NC1CC1 [Example 1-70] displays pIC50 of 8.38

According to the records, this molecule CC(C)CNc1nc(-c2cnc3ccccc3c2)cn2c(-c3ccc(C(=O)NC4CC4)cc3)cnc12 [Example 1-2] displays pIC50 of 7.36

According to the records, this molecule O=C(NC1CC1)c1ccc(-c2cnc3c(NCCC(F)(F)F)nc(C4=CCOCC4)cn23)cc1Cl [Example 1-39] displays pIC50 of 7.91

According to the records, this molecule C=CCOC(=O)CCCNc1nc(-c2ccccc2)cn2c(-c3ccc(C(=O)NC4CC4)cc3)cnc12 [Example 3-44] displays pIC50 of 7.85

These entries and their values trace back to patent US20140135319A1.
